Ref: PubChem BioAssay

experiment: binders of probe aFSTL3 on microarray, primary screen, stem cell growth factor project, biochemical, small-molecule microarray, fluorescence 635/667 (AID 1064); settings: higher = more signal;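 note: measures binding of the biotinylated anti-FSTL3 antibody to printed compounds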
The following ranges of composite z-score define the classes used here: low band (below -0.1), middle band (-0.1 to below 0.09), high band (0.09 or more)

For orientation, consider the following solved cases.
compound	answerLabel
CC(C)[Si]1(C(C)C)OCc2cc(-c3ccc(-c4ccc(Cl)c(Cl)c4)o3)nc(CCc3ccccc3)c21	middle band
C=C(/C(=C/C[C@@H](OC(=O)c1ccncc1)c1cccc(OCCO)c1)c1cnc2ccccc2c1)C(C)C	high band
CC(C)C(=C=CC[C@H](O)c1cccc(OCCO)c1)CCO	middle band
C=C(C(=O)CC[C@@H](OC(=O)c1ccccc1-c1ccccc1C(=O)O)c1ccccc1OCCO)C(C)C	low band

Exam item: Lab note: sort CC(C)C[C@@H]1NC(=O)[C@@]23C(=O)N[C@@H](Cc4ccccc4)C2[C@H](C)[C@@]2(C)O[C@H]2C3/C=C/C/C=C\CNC(=O)[C@@H](C)NC1=O (stereo not given in full) into the matching composite z-score band.
Marked response: low band

Exam item: Pick a category. Item: `COC(=O)[C@@]1(Cc2ccc(OC)cc2)[C@H]2c3cc(C(=O)N4CCCC4)n(Cc4ccc(OC(F)(F)F)cc4)c3C[C@H]2CN1C(=O)c1ccccc1`
Marked response: high band

Exam item: Quick check: band for `C=CCNC(=O)[C@H]1[C@@H]2C(=O)O[C@@H](c3ccccc3)[C@@H](c3ccccc3)N2[C@@H](c2ccc(O)cc2)[C@]12C(=O)N(C(=O)OCCOC)c1ccc(C#CCC(C(=O)OC)C(=O)OC)cc12`
Marked response: low band

Exam item: Dear colleague, I would appreciate it if you could identify the bin for CC(C)[C@H]1NC(=O)[C@@]23C(=O)N[C@@H](Cc4ccccc4)C2[C@H](C)[C@@]2(C)O[C@H]2C3/C=C/C/C=C\CNC(=O)[C@H](Cc2ccccc2)NC1=O (stereo not given in full) and reply at your convenience.
Marked response: low band

====

test: basal MM1S mitochondrial membrane potential changes, profiling panel, cell-based, JC-1 fluorescence, 24 h, 100 nL compound (AID 1170); settings: higher = more signal; note: test concentration not given here
readoutType: z-score
Hey, just send me the number, nothing else.

Here are 3 compounds together with their reported answers.
compound	z-score
COC(=O)[C@@]1(Cc2ccc(F)cc2)[C@H]2c3cc(C(=O)N4CCCC4)n(C)c3C[C@H]2CN1C(=O)c1ccccc1	-0.206
CCOC(=O)C=Cc1ccccc1O	-1.64
CC(C)CCC[C@@H](C)[C@H]1CC[C@@]2(C)C3=C(CC[C@]12C)[C@@]1(C)CC[C@H](OC(=O)c2ccccc2)C(C)(C)C1CC3 (some centres undefined)	-2.12

Exam item: I am curious: what z-score value has been reported for CC(=O)N1CC(C(O)C2C=CC3C(=O)NC(=O)C3N2Nc2ccc(Cl)cc2Cl)c2ccccc21 (centres undefined) ?
Marked response: 0.644

Exam item: Return reported z-score; argument: `NCCCCCNC(=O)[C@H]1C[C@H]2C(=O)N[C@@H](Cc3ccccc3)C(=O)N2[C@H]1c1ccc(O)cc1`
Marked response: -0.378

Exam item: Return reported z-score; argument: `CCOC(=O)C=Cc1cc(F)ccc1O`
Marked response: -0.0774

Exam item: Dear colleague, I am looking for the recorded z-score of the following compound: `[N-]=[N+]=Nc1ccccc1C[C@]1(C(=O)O)N=C(c2ccc(OCCCO)cc2)O[C@H]1c1ccccc1`
Marked response: -0.547

Exam item: Which value of z-score has been reported for CC(C)OC(=O)CC(=O)CC(O)c1ccc([N+](=O)[O-])cc1 (centres undefined) in the records?
Marked response: -0.359

Exam item: Data request, read-out z-score, for `COCC(=C=CC[C@H](O)c1cccc(OCCO)c1)C[C@H](O)COCc1ccccc1`
Marked response: -0.701

====

Here, each record is paired with measured composite z-score data.
biological target: Dihydroorotate dehydrogenase (quinone), mitochondrial (Plasmodium falciparum (isolate 3D7)); experiment: PfDHODH enzyme inhibitors, primary screen, biochemical, C-terminal His tag, absorbance 600 nm (AID 1175); conditions: DCIP absorbance 600 nm, higher = more signal, called active from +8 up or from −8 down;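 note: recombinant parasite enzyme with a five histidine tag at its C terminus; test concentration not given here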
Lab note: jot down the number only; don't add units.

Example cases with answers are listed next.
querySmiles	composite z-score
C=C(COC)C(=O)CC[C@H](OC(=O)c1cccnc1)c1ccc(CO)o1	-3.37
C=C(COC)C(=O)CC[C@@H](OC(=O)c1cccnc1)c1ccccc1OCCO	-0.4
C=CCN1C(=O)[C@@]2(O[C@@H](CCO)[C@H]([Si](C)(C)c3ccc(OC)cc3)[C@H]2C)c2cc(N3CCOC3=O)ccc21	1.58
COCCOC(=O)N1C(=O)[C@@]2(c3cc(C#CCCO)ccc31)[C@H](c1ccccc1OCCO)N1[C@H](c3ccccc3)[C@H](c3ccccc3)OC(=O)[C@H]1[C@@H]2C(=O)N1CCCCCCC1	0.495
COCCOC(=O)N1C(=O)[C@@]2(c3cc(C#CC4(O)CCCCCC4)ccc31)[C@H](c1ccc(OCCO)cc1)N1[C@H](c3ccccc3)[C@H](c3ccccc3)OC(=O)[C@H]1[C@@H]2C(=O)Nc1nc2ccccc2s1	-1.19
C=CCOC(=O)[C@H]1[C@@H]2C(=O)O[C@@H](c3ccccc3)[C@@H](c3ccccc3)N2[C@@H](c2ccc(OCCOC(=O)[C@H]3C[C@H]4C(=O)N[C@@H](CCCCNC(C)=O)C(=O)N4[C@H]3c3cccc(OCCO)c3)cc2)[C@]12C(=O)Nc1ccc(I)cc12	1.34

Exam item: I'd like to know its composite z-score. The compound in question is `C=C(COC)/C(=C/C[C@@H](OC(C)=O)c1ccc(CO)o1)c1cc(C(=O)OC)ccc1OC`
Marked response: -0.0894

Exam item: Look at this compound and give its reported composite z-score. `COc1ccc(NC(=O)O[C@H]2[C@@H]3OC(=O)[C@H](Cc4cccc(Br)c4)C/C=C/C[C@@H](Cc4cccc(Br)c4)C(=O)O[C@H]3[C@@H](OC)O[C@@H]2CO)cc1`
Marked response: 0.732

Exam item: Would you mind telling me what composite z-score value was observed for `C=C(CCCC)C(=O)CC[C@@H](OC(=O)c1cccnc1)c1ccc(OCCO)cc1` ?
Marked response: -2.9

====

Recorded composite z-score values for a group of compounds are listed next.
test: small-molecule microarray binders of probe aCHRDL2, primary screen, biochemical, biotinylated probe, 635/667 nm fluorescence (AID 1100); conditions: higher = more signal
Could you keep your reply to the number by itself?

Exam item: Data request, read-out composite z-score, for `C=CCNC(=O)[C@@H]1[C@H]2C(=O)O[C@H](c3ccccc3)[C@H](c3ccccc3)N2[C@H](c2ccc(OCCO)cc2)[C@@]12C(=O)N(C(=O)OCCOC)c1ccc(C#CCCO)cc12`
Marked response: 0.171

Exam item: State the recorded composite z-score for this entry: `COCC(=C=CC[C@H](O)c1cccc(OCCO)c1)C[C@H](O)COCc1ccccc1`
Marked response: -0.121

Exam item: So what's the measured composite z-score for this one? `O=C1[C@@]23C=C(Br)[C@H](C[C@@H]2COC3)[C@@]12CO2`
Marked response: -0.555

Exam item: Reported composite z-score, compound `Nc1cc(Br)ccc1C(=O)O` : ____
Marked response: -0.155

====

Let's look at some compounds and their measured composite z-score.
test system: Sam68 (KHDRBS1); assay: Sam68 small-molecule binders, primary screen, biochemical, small-molecule microarray, 635 nm fluorescence (AID 1125); details: small-molecule microarray binding, higher = more signal;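 note: score merges 667 nm channel intensity with signal to noise over triplicate slides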

compound	readoutType	reportedValue
C=C(CCCC)/C(=C/C[C@H](OC(C)=O)c1ccc(OCCO)cc1)c1cc(C(=O)OC)ccc1OC	composite z-score	1.17
CC(C)C(=C=CC[C@@H](O)c1cccc(OCCO)c1)C[C@@H](O)COCc1ccccc1	composite z-score	-0.0876
COCCOC(=O)N1C(=O)[C@@]2(c3ccccc31)[C@H](c1ccc(OCCO)cc1)N1[C@H](c3ccccc3)[C@H](c3ccccc3)OC(=O)[C@H]1[C@@H]2C(=O)N1CCCCCCC1	composite z-score	1.35

Exam item: What is its composite z-score for Sam68 (KHDRBS1)? Entry: `C=C[C@@H](OC)[C@H](OC(=O)Nc1ccc(SC)cc1)c1ccc(OCCO)cc1`
Marked response: 1.34

Exam item: Give composite z-score (Sam68 (KHDRBS1)) of the following compound: CCOC(=O)C1=CCC(c2ccccc2)N(S(=O)(=O)c2ccc([N+](=O)[O-])cc2)C1 (stereo not drawn)
Marked response: 0.439

Exam item: Notebook entry, Sam68 (KHDRBS1) assay: composite z-score of CN1C(=O)C2C=CC(C(O)c3cc(C(F)(F)F)cc(C(F)(F)F)c3)N(Nc3ccccc3)C2C1=O (stereo not drawn) = ?
Marked response: 0.891

Exam item: Request body: readout composite z-score, system Sam68 (KHDRBS1), query `Cc1ccc(S[C@]2(C(=O)NCc3ccccc3)CC(=O)N(Cc3cc(C(F)(F)F)cc(C(F)(F)F)c3)[C@@H]2c2ccc(CO)cc2I)cc1` . Return the value.
Marked response: -0.191

Exam item: Param readout = composite z-score; param system = Sam68 (KHDRBS1); param query = `COC(=O)[C@@]1(Cc2ccc(F)cc2)[C@H]2c3cc(C(=O)N4CCCC4)n(C)c3C[C@H]2CN1C(=O)c1ccccc1` ; response: value
Marked response: 1.31
